# System: MDA-MB-231 breast
# assay_info: NCI-60 one-dose screen, 48 h
# condition_label: 10 µM unless noted
# Procedure: Cells are grown in 96 well plates and exposed to the test compound for 48 hours. Compounds are tested at a single concentration, which is 10^-5 M for most compounds. The reported endpoint is percent growth (GI% or GIPRCNT), where numbers from 0 - 100% represent growth inhibition, and numbers from -100% - 0 represent cell death. For example, a value of 40 represents 60% growth inhibition. A value of 0 means no net growth occurred over the course of the experiment. […]
Compounds without any hit were thinned out: in the full panel of roughly 83,000, 20% have a hit. Calls of active or inactive are those of the source. The calls were made as follows: active = growth percent below 10; inactive = the rest.
Outcome codes: active, inactive

{"compound": "Cc1ccc(C)n1-c1ccccc1-n1c(C)ccc1C", "tested_on": "MDA-MB-231 breast", "label_value": "inactive"}
{"compound": "COC1=CC(c2ccc[nH]2)=N/C1=C\\c1[nH]c(C)c(C)c1CCC(=O)OCc1ccccc1", "tested_on": "MDA-MB-231 breast", "label_value": "active"}
{"compound": "COC12C=C/C(=C(/C(=O)OCc3ccncc3)C(=O)CCCCCCCCC3(OC)C=C/C(=C(/C(=O)OCc4ccncc4)C(=O)CCCCCCCC1)O3)O2", "tested_on": "MDA-MB-231 breast", "label_value": "active"}
{"compound": "CC(=O)/C(=C\\c1c(-c2ccccc2)[nH]c2ccccc12)S(C)(=O)=O", "tested_on": "MDA-MB-231 breast", "label_value": "inactive"}
{"compound": "COc1ccc(C/C(C)=C(/c2ccc(OCCN(C)C)cc2)c2ccc(OC(=O)NCc3ccccc3)cc2)cc1", "tested_on": "MDA-MB-231 breast", "label_value": "inactive"}
{"compound": "CCCCCCCC[C@@H]1N[C@@H](C(=O)OC)Cc2c1[nH]c1ccccc21", "tested_on": "MDA-MB-231 breast", "label_value": "inactive"}
{"compound": "O=C(N/N=C/c1ccc(Cl)cc1)c1[nH]c2ccc(Cl)cc2c1-c1ccccc1", "tested_on": "MDA-MB-231 breast", "label_value": "active"}
{"compound": "NS(=O)(=O)c1ccc(N=Nc2c(O)n(Cc3ccccc3)c3ccc(Cl)cc23)cc1", "tested_on": "MDA-MB-231 breast", "label_value": "inactive"}
{"compound": "Nc1ncnc2c1C(c1ccccc1)c1ccc3ccccc3c1O2 (centres undefined)", "tested_on": "MDA-MB-231 breast", "label_value": "inactive"}
{"compound": "Cn1c(=O)cc2c3c(c(NCCCO)ccc31)C(=O)c1ccccc1-2", "tested_on": "MDA-MB-231 breast", "label_value": "inactive"}
{"compound": "O=C(c1nn(-c2ccccc2)c2c1CC(NCc1ccc(F)cc1)CC2)N1CCCCC1 (centres undefined)", "tested_on": "MDA-MB-231 breast", "label_value": "inactive"}
{"compound": "O=C(C[C@]1(O)C(=O)Nc2ccccc21)c1cccc(C(F)(F)F)c1", "tested_on": "MDA-MB-231 breast", "label_value": "inactive"}
{"compound": "COc1ccc2cc1Oc1ccc(cc1)C[C@H]1c3c(cc4c(c3Oc3cc5c(cc3OC)CCN(C)[C@@H]5C2)OCO4)CCN1C", "tested_on": "MDA-MB-231 breast", "label_value": "active"}
{"compound": "O=S(=O)(NCCCNc1nccc(-c2c(-c3ccc(F)c(O)c3)nc3occn23)n1)c1ccc(Cl)cc1", "tested_on": "MDA-MB-231 breast", "label_value": "inactive"}
{"compound": "COc1cc(OCc2cccc(Br)c2C)cc(OC)c1C=O", "tested_on": "MDA-MB-231 breast", "label_value": "inactive"}
{"compound": "Oc1c(I)cc(I)cc1CNCc1ccccn1", "tested_on": "MDA-MB-231 breast", "label_value": "inactive"}
{"compound": "CCOC(=O)c1c(NC(=O)c2cccc(C(F)(F)F)c2)sc2c(CN(C)C)c(O)ccc12", "tested_on": "MDA-MB-231 breast", "label_value": "inactive"}
{"compound": "N#Cc1c(-c2ccccc2)cc(-c2ccccc2)n(CCCC(=O)Nc2ccccc2N)c1=O", "tested_on": "MDA-MB-231 breast", "label_value": "inactive"}
{"compound": "CCN(CC)S(=O)(=O)c1ccc(S(=O)(=O)N2CCC[C@@H](C(=O)N3CCN(c4nc(C(C)C)no4)CC3)C2)cc1", "tested_on": "MDA-MB-231 breast", "label_value": "inactive"}
{"compound": "O=C(/C=C/c1cccs1)Nc1ncc(Cc2ccccc2F)s1", "tested_on": "MDA-MB-231 breast", "label_value": "inactive"}
{"compound": "CN1C(=O)/C(=C\\c2nc([P+](c3ccccc3)(c3ccccc3)c3ccccc3)c(N3CCOCC3)o2)SC1=S", "tested_on": "MDA-MB-231 breast", "label_value": "inactive"}
{"compound": "COc1cc2c(c(OC)c1OC)CCC(c1cccc(NC(=O)c3ccc(Br)cc3)c1)O2 (centres undefined)", "tested_on": "MDA-MB-231 breast", "label_value": "inactive"}
{"compound": "Cc1cccc(CNc2c3ccccc3nc3ccccc23)c1", "tested_on": "MDA-MB-231 breast", "label_value": "inactive"}
{"compound": "O=C1C(Cl)=C(NCCCCCCNC2=C(Cl)C(=O)c3ccccc3C2=O)C(=O)c2ccccc21", "tested_on": "MDA-MB-231 breast", "label_value": "inactive"}
{"compound": "Nc1[nH]n2cc(-c3ccccc3)nc2c1N=Nc1ccc(S(N)(=O)=O)cc1", "tested_on": "MDA-MB-231 breast", "label_value": "inactive"}
{"compound": "Cn1cc(-c2ccc3nc(-c4ccc(CC(=O)ONc5cc(C(C)(C)C)on5)cc4)cnc3c2)cn1", "tested_on": "MDA-MB-231 breast", "label_value": "inactive"}
{"compound": "COC(CC(F)F)c1cn(S(=O)(=O)c2ccc(C)cc2)c2ccccc12 (centres undefined)", "tested_on": "MDA-MB-231 breast", "label_value": "inactive"}
{"compound": "C#CCOc1ccc2ncnc(Nc3ccc(NC(=O)C=C)cc3)c2c1", "tested_on": "MDA-MB-231 breast", "label_value": "active"}
{"compound": "C=C(CBr)[C@@H]1CC[C@]2(C(=O)O)CC[C@]3(C)[C@H](CC[C@@H]4[C@@]5(C)CCC(=O)C(C)(C)[C@@H]5CC[C@]43C)[C@@H]12", "tested_on": "MDA-MB-231 breast", "label_value": "inactive"}
{"compound": "CCCOC(=O)Nc1nc2ccc(SCC(C)C)cc2s1", "tested_on": "MDA-MB-231 breast", "label_value": "inactive"}
{"compound": "C#COc1cccc(Nc2c(C#N)cnc3ncc(NC(=O)CCl)cc23)c1", "tested_on": "MDA-MB-231 breast", "label_value": "inactive"}
{"compound": "CN(c1cc2ncc(=O)[nH]c2cc1NC(N)=NCc1ccc(Cl)cc1)C1CCCCC1", "tested_on": "MDA-MB-231 breast", "label_value": "inactive"}
{"compound": "COC(=O)/C=C1/SC(=Nc2ccc(C(F)(F)F)cc2)N(CCc2c[nH]c3ccc(O)cc23)C1=O", "tested_on": "MDA-MB-231 breast", "label_value": "active"}
{"compound": "N#CC1=C(N)Oc2c(sc3c(Br)cccc23)C1c1ccc(Cl)cc1 (centres undefined)", "tested_on": "MDA-MB-231 breast", "label_value": "active"}
{"compound": "CC1(C)CC(=O)C2=C(C1)N(c1ccc(OC(F)(F)F)cc1)C(N)=C(C#N)C2c1ccc(Br)cc1F (centres undefined)", "tested_on": "MDA-MB-231 breast", "label_value": "inactive"}
{"compound": "Cc1c(-c2ccc(O)cc2)n(Cc2ccc(OCCN3CCCCCC3)cc2)c2ccc(O)cc12", "tested_on": "MDA-MB-231 breast", "label_value": "inactive"}
{"compound": "Cn1c(I)c(C#CCO[Si](C)(C)C(C)(C)C)c(=O)[nH]c1=O", "tested_on": "MDA-MB-231 breast", "label_value": "inactive"}
{"compound": "O=C(Nc1nc2ccccc2s1)c1ccc(F)cc1", "tested_on": "MDA-MB-231 breast", "label_value": "inactive"}
{"compound": "COc1ccc2c(c1)CC[C@H](O)/C2=C/c1cc(OC)c(OC)c(OC)c1", "tested_on": "MDA-MB-231 breast", "label_value": "inactive"}
